Recorded TGI by entry
# System: HT29 colon
# assay explanation: NCI tumour cell line growth inhibition, 48 h

[
  {
    "compound": "O=C(O)CCSC(=O)Nc1ccccc1Cl",
    "measurement target": "HT29 colon",
    "experimental value": "> 100 µM"
  }
]

Form field: reported TGI of CC(O)CN1c2ccccc2Sc2ccc(Cl)cc21 (stereo not given)
> 10 µM

Using the record for O=C(NNC(=S)Nc1ccccc1)c1ccccn1 , report its TGI.
> 100 µM

Form field: reported TGI of CCN(CC)CCCC(C)Nc1cc(/C=C/c2ccc(Cl)cc2)nc2cc(N(C)C)ccc12 (stereo not given)
2.65 µM

What value of TGI has been reported for the following compound? COCCOCCOCCOc1ccc(C(C#N)N(CCc2ccccc2)C(=O)c2cc(C(=O)N(CCc3ccccc3)C(C#N)c3ccc(OCCOCCOCCOC)cc3)cc(C(=O)N(CCc3ccccc3)C(C#N)c3ccc(OCCOCCOCCOC)cc3)c2)cc1 (stereo not given)
> 100 µM

###

# System: XF 498 CNS
# assay explanation: NCI tumour cell line growth inhibition, 48 h
assay metric: TGI

[
  {
    "compound": "O=C1C(=O)N(c2cccc(C(F)(F)F)c2)C(=O)C(=O)C1c1nc2ccccc2s1",
    "experimental value": "> 100 µM"
  },
  {
    "compound": "COc1ccc(/C=c2/sc3n(c2=O)NC(c2ccc(Cl)cc2)NN=3)cc1 (stereo unspecified)",
    "experimental value": "> 100 µM"
  },
  {
    "compound": "CC1=NN(C(=O)c2ccc(Cl)cc2)C(=O)/C1=C/c1ccco1",
    "experimental value": "> 100 µM"
  },
  {
    "compound": "[O-][n+]1c(-c2ccccc2)c2nc3ccccc3nc2c2ccccc21",
    "experimental value": "> 100 µM"
  },
  {
    "compound": "O=C(O)c1nccnc1C(=O)O",
    "experimental value": "> 100 µM"
  },
  {
    "compound": "N#CCCN(CCC#N)c1ccc(/C=C2\\N=C(c3cc([N+](=O)[O-])ccc3Cl)N(NC(=O)CC(=O)Nc3ccccc3Cl)C2=O)cc1",
    "experimental value": "> 100 µM"
  },
  {
    "compound": "NNC(=O)N/N=C1\\C(=O)N(c2nccs2)C(=O)C(=O)C1c1nc2ccccc2s1 (stereo unspecified)",
    "experimental value": "> 100 µM"
  },
  {
    "compound": "Cc1nc(Nc2ccccc2)sc1C(=O)CC(=O)C(=O)NC12CC3CC(CC(C3)C1)C2",
    "experimental value": "> 100 µM"
  }
]

Any idea what its TGI is? The compound is O=C1C2ON3c4ccccc4C(=O)C3(c3ccccc3)C2C(=O)N1c1ccccc1 (stereo unspecified)
> 100 µM

Requested read-out: TGI. Entry: NC(=Nc1nc(-c2ccccn2)cc2ccccc12)c1ccccn1
0.0644 µM

// query TGI value for entry CCN(CC)CCNc1ccc2nnn3c4ccccc4c(=O)c1c23
13.6 µM

###

# System: OVCAR-3 ovarian
# assay explanation: NCI tumour cell line growth inhibition, 48 h; in the data active = GI50 below about 0.43 µM; inactive = the rest
Entry note: the call must match one of 1 = active, -1 = inactive

Use the examples below as a reference point.
[
  {
    "compound": "CC[C@@H](C)Nc1cc(C(=O)NC2CC3CCC(C2)N3c2ccc(C(=O)C3CC3)cn2)c(C)cc1C(N)=O (some centres not stated)",
    "assigned category": 1
  },
  {
    "compound": "O=C(Nc1ccc2c(c1)OCO2)C(=O)c1c[nH]c2cc(F)ccc12",
    "assigned category": -1
  },
  {
    "compound": "N#Cc1c(N)nc(N2CCSCC2)c(C#N)c1-c1ccc(O)cc1",
    "assigned category": -1
  },
  {
    "compound": "O=C(NN1C(=O)CSC12CCCC2)C(O)c1ccccc1 (configuration not stated)",
    "assigned category": -1
  }
]

Now consider a different compound.
// param item: CC(C)(C)NC/C(=C\c1ccccc1)C(=O)c1ccccc1 ; yields the recorded call
-1

###

# Tested on: SF-539 CNS
# assay explanation: NCI tumour cell line growth inhibition, 48 h
TGI values, listed per item

Here are 4 compounds together with their reported answers.
[
  {
    "compound": "COC(=O)c1ccc2c(c1)c1c(C)c3ccncc3c(C)c1n2C",
    "measurement target": "SF-539 CNS",
    "TGI": "45.1 µM"
  },
  {
    "compound": "Nc1ccc2c(c1)Oc1c(F)c(F)cc3c(=O)c(C(=O)O)cn-2c13",
    "measurement target": "SF-539 CNS",
    "TGI": "> 100 µM"
  },
  {
    "compound": "COc1ccc(N2C(=O)/C(=C\\c3cccc(Oc4ccccc4)c3)SC2c2ccccc2)cc1 (stereo not drawn)",
    "measurement target": "SF-539 CNS",
    "TGI": "55.9 µM"
  },
  {
    "compound": "CC(O)CN1c2ccccc2Sc2ccc(Cl)cc21 (stereo not drawn)",
    "measurement target": "SF-539 CNS",
    "TGI": "> 10 µM"
  }
]

Continue with the compound presented below.
Data request, read-out TGI, for [O-][n+]1c(-c2ccccc2)c2nc3ccccc3nc2c2ccccc21
> 100 µM

###

# Test system: M14 melanoma
# assay explanation: NCI tumour cell line growth inhibition, 48 h
assay metric: TGI

[
  {
    "compound": "COCCOCCOCCOc1ccc(C(C#N)N(CCc2ccccc2)C(=O)c2cc(C(=O)N(CCc3ccccc3)C(C#N)c3ccc(OCCOCCOCCOC)cc3)cc(C(=O)N(CCc3ccccc3)C(C#N)c3ccc(OCCOCCOCCOC)cc3)c2)cc1 (centres undefined)",
    "TGI": "> 100 µM"
  }
]

What value of TGI has been reported for the following compound? CC(=O)Oc1c(C)c2c(c3ccccc13)OC(C)(C)C2
30.9 µM

Report TGI for O=C(Nc1ccc2c(c1)OCO2)C(=O)c1c[nH]c2cc(F)ccc12 please.
10.9 µM

Quick one: TGI of O=C1C(Cl)C(c2cc3cc(Br)ccc3nc2Cl)N1c1c(Cl)cccc1Cl (centres undefined) ?
> 25 µM

###

# Tested on: CCRF-CEM leukemia
# assay explanation: NCI tumour cell line growth inhibition, 48 h
assay metric: TGI

For orientation, consider the following solved cases.
[
  {
    "molecule": "O=C1C(Cl)C(c2cc3cc(Br)ccc3nc2Cl)N1c1c(Cl)cccc1Cl (configuration not stated)",
    "experimental value": "20 µM"
  },
  {
    "molecule": "COC(=O)C(C(=O)C(=O)Nc1ccc(OC)cc1[N+](=O)[O-])c1nc2cc(C)c(C)cc2[nH]c1=O (configuration not stated)",
    "experimental value": "> 100 µM"
  },
  {
    "molecule": "O=C(NNC(=S)NCc1ccccc1)C12CC3CC(CC(C3)C1)C2",
    "experimental value": "> 100 µM"
  }
]

Data request, read-out TGI, for COc1ccc(Nc2nc3ccccc3nc2C(=O)O)cc1OC
> 100 µM

###

# Test system: EKVX NSCLC
# assay explanation: NCI tumour cell line growth inhibition, 48 h
assay metric: TGI (µM)
Quick note: give the figure in µM, leave out the unit.

Recorded TGI of CN(C)Cc1cc(N=Nc2ccc(Cl)cc2)ccc1O , please.
33.8

Tell me the measured TGI of CC(=O)C1CCC2C3CC=C4CC(SC(=N)N)CCC4(C)C3CCC12C (stereo not given) , please.
6.88

Recorded TGI of CC(=O)Oc1c2oc3cc(O)c(O)cc3c2c(OC(C)=O)c2oc3cc(O)c(O)cc3c12 , please.
40.1

Reported TGI, molecule CCCCCCCCCCCCCCCC(=O)OC1C(O)C(CO)OC(OC)C1NC(=O)N(CCCl)N=O (stereo not given) : ____
34.7

###

# Tested on: A549 NSCLC
# assay explanation: NCI tumour cell line growth inhibition, 48 h; in the data active means GI50 below about 0.43 µM; inactive means the rest
Your answer must be one of the following: active, inactive

Study these solved cases before continuing.
[
  {
    "compound": "COc1ccc2c(c1)C(=O)c1c-2n(CCCN)c(=O)c2cc(OC)c(OC)cc12",
    "measurement target": "A549 NSCLC",
    "assigned category": "active"
  },
  {
    "compound": "CCOC(=O)c1csc(NC(=O)COc2cccc(/C=C3\\CSc4ccccc4C3=O)c2)n1",
    "measurement target": "A549 NSCLC",
    "assigned category": "inactive"
  },
  {
    "compound": "O=C(Nc1ccc2c(c1)OCO2)C(=O)c1c[nH]c2cc(F)ccc12",
    "measurement target": "A549 NSCLC",
    "assigned category": "inactive"
  }
]

Given O=C(NNC(=S)Nc1ccccc1)c1ccccn1 , state the outcome it received in this test.
inactive

Could you kindly confirm the outcome this assay logged for Cc1cc(NNC(=O)c2ccccc2O)nc(Nc2nc3ccccc3o2)n1 ?
inactive

Just for reference, PubChem BioAssay (NCI) is where these values come from.
